Molecular target: human HER3 receptor (human, UniProt P21860 20-1342)
Sequence (P21860 20-1342 limits assumed): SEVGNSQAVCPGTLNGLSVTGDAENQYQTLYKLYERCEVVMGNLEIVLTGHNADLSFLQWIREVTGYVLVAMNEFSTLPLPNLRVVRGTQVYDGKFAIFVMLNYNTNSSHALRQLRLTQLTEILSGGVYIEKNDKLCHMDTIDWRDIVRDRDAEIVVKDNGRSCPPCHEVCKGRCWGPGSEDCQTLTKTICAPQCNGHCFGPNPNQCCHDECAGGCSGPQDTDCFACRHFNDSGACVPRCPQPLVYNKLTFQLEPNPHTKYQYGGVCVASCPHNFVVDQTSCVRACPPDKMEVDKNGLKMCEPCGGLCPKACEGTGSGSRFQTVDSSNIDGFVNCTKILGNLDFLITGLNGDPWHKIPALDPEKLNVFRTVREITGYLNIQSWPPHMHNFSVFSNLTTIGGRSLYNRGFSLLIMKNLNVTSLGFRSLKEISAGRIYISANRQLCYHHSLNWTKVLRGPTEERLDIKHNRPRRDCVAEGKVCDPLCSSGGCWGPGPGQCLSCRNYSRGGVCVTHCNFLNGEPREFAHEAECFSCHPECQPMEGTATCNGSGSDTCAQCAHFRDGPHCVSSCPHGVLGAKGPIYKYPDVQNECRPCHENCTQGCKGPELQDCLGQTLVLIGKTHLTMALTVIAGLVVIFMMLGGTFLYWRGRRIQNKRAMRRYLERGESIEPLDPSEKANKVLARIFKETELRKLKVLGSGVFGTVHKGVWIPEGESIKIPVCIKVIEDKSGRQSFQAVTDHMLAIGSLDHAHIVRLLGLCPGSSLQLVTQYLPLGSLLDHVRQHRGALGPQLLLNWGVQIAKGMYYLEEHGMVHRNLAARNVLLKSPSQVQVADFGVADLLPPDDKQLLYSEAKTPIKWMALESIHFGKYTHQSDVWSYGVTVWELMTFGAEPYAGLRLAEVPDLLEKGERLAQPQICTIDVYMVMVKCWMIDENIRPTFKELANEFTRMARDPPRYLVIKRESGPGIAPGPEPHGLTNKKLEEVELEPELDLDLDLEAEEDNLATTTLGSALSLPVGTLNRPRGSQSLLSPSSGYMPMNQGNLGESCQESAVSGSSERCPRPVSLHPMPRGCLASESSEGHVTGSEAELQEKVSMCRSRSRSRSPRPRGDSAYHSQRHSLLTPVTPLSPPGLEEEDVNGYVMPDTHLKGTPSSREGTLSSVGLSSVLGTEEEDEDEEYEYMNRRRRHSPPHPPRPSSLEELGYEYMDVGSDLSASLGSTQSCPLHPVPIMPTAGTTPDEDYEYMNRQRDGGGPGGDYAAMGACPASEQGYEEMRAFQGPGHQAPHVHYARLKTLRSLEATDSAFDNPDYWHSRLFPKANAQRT
Test: cell-based or functional assay
VALUE_KIND: Phospho-HER3 ELISA IC50, heregulin induced HER3 phosphorylation, SK-BR-3 cells (ng/mL)
Numeric only. Scale: ng/mL

humanized 1D9 POTELLIGENT antibody (antibody, human IgG1, kappa, V domains shown, also called humanized 1D9 H6L2 POTELLIGENT antibody; humanized POTELLIGENT antibody) VH: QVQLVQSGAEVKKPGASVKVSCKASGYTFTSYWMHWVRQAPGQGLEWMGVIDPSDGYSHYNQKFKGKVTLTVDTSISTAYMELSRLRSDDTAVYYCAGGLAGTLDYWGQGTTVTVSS VL: DIQMTQSPSSLSASVGDRVTITCRSSQSIVHSSGNTYLQWFQQKPGKAPKLLIYKVSNRFSGVPSRFSGSGSGTDFTLTISSLQPEDFAVYYCFQGSHVPWTFGQGTKLEIKR = 3.4
murine 15D5 antibody (M5.15D5.2A1.1H10) (antibody, V domains shown) VH: EFQLQQSGPELVKPGASVKISCKASGYSFTDYNMNWVKQNNGKSLEWIGGINPNYGTTVYNQKFKGKATLTVDQSSSTAYMQLVSLTSEDSAVYYCARMTTIVPFDYWGQGTTLTVSS VL: DIQMTQTTFSLSASLGDRVTISCRASQDISNYLNWYQQKPDGTVKLLIYYTSTLHSGVPSRFSGSGSGTDYFLTIRNLEEEDIATYFCQQGYTLPWTFGGGTKLDIK = 19.1
humanized 1D9 Fc disabled antibody (antibody, V domains shown, also called humanized 1D9 H6L2 Fc disabled antibody) VH: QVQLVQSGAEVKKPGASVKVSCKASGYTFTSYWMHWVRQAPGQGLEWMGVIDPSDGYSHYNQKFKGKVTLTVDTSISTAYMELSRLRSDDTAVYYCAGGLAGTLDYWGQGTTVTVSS VL: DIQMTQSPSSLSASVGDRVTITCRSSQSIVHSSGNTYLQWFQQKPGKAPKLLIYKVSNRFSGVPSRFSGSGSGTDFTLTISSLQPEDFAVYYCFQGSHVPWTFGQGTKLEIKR = 4.4
murine 1D9 antibody (M5.1D9.1F5) (antibody, V domains shown) VH: QVQLQQPGAELVRPGTSVKLSCKASGYTFTSYWMHWVKQRPGQGLEWIGVIDPSDGYSHYNQKFKGKATLTVDTSSSTAYMQLSSLTSEDSAVYYCAGGLAGTLDYWGQGTTLTVSS VL: DVLMTQTPLSLPVSLGDQASISCRSSQSIVHSSGNTYLQWFLQKPGQSPKLLISKVSNRFSGVPDRFSGSGSGTDFTLRISRVEAEDLGLYYCFQGSHVPWTFGGGTKLEIK = 3.2

Let's switch to this binder now.
Name the recorded Phospho-HER3 ELISA IC50, heregulin induced HER3 phosphorylation, SK-BR-3 cells for humanized 1D9 antibody (antibody, human IgG1, kappa, V domains shown) VH: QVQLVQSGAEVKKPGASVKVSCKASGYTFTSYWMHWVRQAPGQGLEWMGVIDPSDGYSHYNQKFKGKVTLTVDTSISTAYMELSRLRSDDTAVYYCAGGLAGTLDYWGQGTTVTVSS VL: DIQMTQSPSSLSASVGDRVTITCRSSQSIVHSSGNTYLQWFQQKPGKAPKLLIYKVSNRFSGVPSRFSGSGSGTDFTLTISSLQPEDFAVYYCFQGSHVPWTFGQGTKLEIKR .
3.6

These measurements were taken from patent WO2016059602A2.
